- target.entity: Nuclear receptor ROR-alpha (Homo sapiens)
- experimental.protocol: Partial agonist activity at GST-fussed RORalpha (unknown origin) assessed as recruitment of TIF2 mutant-BAP protein after overnight incubation by pull down assay
Calls of active or inactive are those of the source. No cut-off for these calls is given here.
quantity.kind: Activity

COc1cccc(COC(=O)C2=C(C)NC(=O)NC2c2ccc(OCc3ccccc3)c(OC)c2)c1 (racemic) | inactive
CCOC(=O)C1=C(C)N(C)C(=O)NC1c1ccc(OCc2ccccc2)c(OC)c1 (racemic) | inactive
COc1cc(C2NC(=O)NC(C)=C2C(=O)OCCSC)ccc1OCc1ccccc1 (racemic) | inactive
CCC(C)NC(=O)C1=C(C)NC(=O)NC1c1ccc(OCc2ccccc2)cc1 (racemic) | inactive
CC1=C(C(=O)OCC(C)C)C(c2ccc(OCc3ccccc3)cc2)NC(=O)N1 (racemic) | inactive

Each of the following entries comes with a recorded value; kindly state Activity for each.
1. COc1cc(C2NC(=O)NC(C)=C2C(=O)NCc2ccccc2)ccc1OCc1ccccc1 (racemic)
2. COc1cc(C2NC(=O)NC(C)=C2C(=O)OCCOC(C)C)ccc1OCc1ccccc1 (racemic)
3. COc1cc(C2NC(=O)NC(C)=C2C(=O)OCC2CCCO2)ccc1OCc1ccccc1 (racemic)

1. inactive
2. inactive
3. inactive

====

I'd be grateful if you could share measured Emax for these entries.
- target.entity: Nuclear receptor ROR-alpha (Homo sapiens)
- experimental.protocol: Partial agonist activity at GST-fussed RORalpha (unknown origin) assessed as recruitment of TIF2-BAP protein after overnight incubation by pull down assay relative to 7DC
Answers are plain numbers, in %.

Below, each entry is followed by its recorded Emax result.
COc1cc(C2NC(=O)NC(C)=C2C(C)=O)ccc1OCc1ccccc1Cl (racemic) | 48
COc1cc(C2NC(=O)NC(C)=C2C(=O)OCCSC)ccc1OCc1ccccc1 (racemic) | 27

// below: Emax requested for another compound
Give the measured Emax of CCCCOC(=O)C1=C(C)NC(=O)NC1c1ccc(OCc2ccccc2)c(OC)c1 (racemic) . 58

====

I'd be grateful if you could share measured Emax for these entries.
- target.entity: Nuclear receptor ROR-alpha (Homo sapiens)
- experimental.protocol: Partial agonist activity at GST-fussed RORalpha (unknown origin) assessed as recruitment of TIF2-BAP protein after overnight incubation by pull down assay relative to 7DC
One number for each entry, in %.

Below, each entry is followed by its recorded Emax result.
CC1=C(C(=O)OCCOc2ccccc2)C(c2ccc(OCc3ccccc3)cc2)NC(=O)N1 (racemic) | 39
CCOC(=O)C1=C(C)N(C)C(=O)NC1c1ccc(OCc2ccccc2)c(OC)c1 (racemic) | 29
COc1ccc(COC(=O)C2=C(C)NC(=O)NC2c2ccc(OCc3ccccc3)c(OC)c2)cc1OC (racemic) | 43
CCOC(=O)C1=C(C)NC(=O)NC1c1ccc(OCc2ccccc2)c(OC)c1 (racemic) | 56
CCOc1cc(C2NC(=O)NC(C)=C2C(C)=O)ccc1OCc1ccccc1Cl (stereo in doubt; 1) | 88
COc1ccc(COC(=O)C2=C(C)NC(=O)NC2c2ccc(OCc3ccccc3)c(OC)c2)cc1 (racemic) | 19
CCOC(=O)C1=C(C)NC(=O)N(C)C1c1ccc(OCc2ccccc2)c(OC)c1 (racemic) | 19
CCOC(=O)C1=C(C)NC(=O)NC1c1ccc(OCc2ccccc2)cc1 (racemic) | 25

Each of the following entries comes with a recorded value; kindly state Emax for each.
1. CCOC(=O)C1=C(C)NC(=O)NC1c1cc(OC)c(OCc2ccccc2Cl)cc1Cl (racemic)
2. CCOC(=O)C1=C(C)NC(=O)NC1c1ccc(OCCc2ccccc2)c(OC)c1 (racemic)

55
36

Give the measured Emax of COc1cc(C2NC(=O)NC(C)=C2C(=O)OCC(F)(F)F)ccc1OCc1ccccc1 (racemic) . 80

src = ChEMBL document CHEMBL2384919
